Cited source for all entries: ChEMBL document CHEMBL6153141

assay: Metabolic stability in human liver microsomes assessed as intrinsic clearance at 100 uM measured upto 60 mins in presence of NADPH by LC-MS/MS analysis; format: ADME, Microsome; conditions: read-out: CLH
value type: microsomal CLint at 100 µM (µL/min/mg)
State just the number; it will be interpreted in µL/min/mg.

What value of measured microsomal CLint at 100 µM is listed for C=CS(=O)(=O)N1CCC[C@@H](Nc2nc(N)nc(Nc3cccc(Oc4ccccc4)c3)n2)C1 ?
214

---

molecular target: Tyrosine-protein kinase JAK3 (Homo sapiens)
Sequence (P52333 whole entry): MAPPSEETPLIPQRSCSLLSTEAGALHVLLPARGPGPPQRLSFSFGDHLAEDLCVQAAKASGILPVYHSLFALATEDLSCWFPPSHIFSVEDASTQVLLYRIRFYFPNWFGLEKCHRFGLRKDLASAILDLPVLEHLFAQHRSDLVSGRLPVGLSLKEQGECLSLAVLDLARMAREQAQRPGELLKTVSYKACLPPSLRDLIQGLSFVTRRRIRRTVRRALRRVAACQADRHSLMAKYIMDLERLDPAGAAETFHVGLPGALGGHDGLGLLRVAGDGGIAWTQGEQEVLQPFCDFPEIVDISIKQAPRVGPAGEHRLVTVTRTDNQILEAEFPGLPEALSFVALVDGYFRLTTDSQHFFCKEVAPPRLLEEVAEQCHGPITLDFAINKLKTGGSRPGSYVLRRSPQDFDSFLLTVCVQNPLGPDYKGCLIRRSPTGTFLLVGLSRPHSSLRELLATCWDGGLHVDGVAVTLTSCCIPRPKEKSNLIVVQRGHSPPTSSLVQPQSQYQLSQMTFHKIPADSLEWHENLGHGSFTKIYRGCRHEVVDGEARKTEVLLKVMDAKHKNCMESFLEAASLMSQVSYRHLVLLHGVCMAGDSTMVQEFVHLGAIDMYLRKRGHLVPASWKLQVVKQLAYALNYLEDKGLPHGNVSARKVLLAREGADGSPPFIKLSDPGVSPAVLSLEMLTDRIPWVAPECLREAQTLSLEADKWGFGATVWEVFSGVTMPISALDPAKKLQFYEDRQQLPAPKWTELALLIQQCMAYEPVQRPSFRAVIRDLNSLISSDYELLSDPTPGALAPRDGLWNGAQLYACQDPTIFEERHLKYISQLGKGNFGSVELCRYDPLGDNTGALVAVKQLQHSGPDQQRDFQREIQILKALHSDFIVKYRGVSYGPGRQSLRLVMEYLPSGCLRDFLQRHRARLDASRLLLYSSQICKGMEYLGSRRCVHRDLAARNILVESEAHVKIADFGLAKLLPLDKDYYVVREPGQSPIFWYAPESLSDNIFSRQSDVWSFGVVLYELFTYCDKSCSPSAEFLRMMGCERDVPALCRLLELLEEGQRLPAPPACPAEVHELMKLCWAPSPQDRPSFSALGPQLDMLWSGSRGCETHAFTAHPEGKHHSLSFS
value type: IC50 (µM)
Give the number; µM is assumed, so skip it.

What value of measured IC50 is listed for C=CS(=O)(=O)N1CCC[C@@H](Nc2nc(N)nc(Nc3cccc(Oc4ccccc4)c3)n2)C1 ?
0.437
